Target: Bifunctional protein GlmU (Mycobacterium tuberculosis (strain ATCC 25618 / H37Rv)) (UniProt P9WMN3)
Sequence (P9WMN3 whole entry, looked up): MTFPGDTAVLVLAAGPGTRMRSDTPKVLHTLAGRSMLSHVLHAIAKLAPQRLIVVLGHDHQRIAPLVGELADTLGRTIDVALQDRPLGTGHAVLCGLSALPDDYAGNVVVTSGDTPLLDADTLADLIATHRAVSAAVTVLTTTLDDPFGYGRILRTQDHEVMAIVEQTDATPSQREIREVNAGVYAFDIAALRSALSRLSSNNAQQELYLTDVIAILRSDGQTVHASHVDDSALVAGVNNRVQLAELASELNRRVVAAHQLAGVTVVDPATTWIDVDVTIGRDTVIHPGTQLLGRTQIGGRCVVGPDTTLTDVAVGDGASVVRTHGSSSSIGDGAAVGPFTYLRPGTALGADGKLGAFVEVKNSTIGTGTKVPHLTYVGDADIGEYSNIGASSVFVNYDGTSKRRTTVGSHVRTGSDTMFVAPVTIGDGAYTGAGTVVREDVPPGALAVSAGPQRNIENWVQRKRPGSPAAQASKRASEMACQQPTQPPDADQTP
Assay: inhibition of mycobacterial GlmU enzyme – biochemical, glucosamine-1-phosphate acetyltransferase (AID 1376);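 further: 0% = complete reaction with vehicle and 100% = reaction without substrate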
Conditions: M. tuberculosis GlmU acetyltransferase enzyme assay;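 tested at 30 µM in the primary screen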
Among all 220,000 compounds or so, about 530 (0.24%) were called active. No stated cut-off is given here; in the data, active means inhibition above about 13%; inconclusive means no clear call, values can overlap the other calls; inactive means below that. Shown is part of a subset that was picked to be rich in actives. Entries with a potency or affinity are not part of this list.
I would appreciate it if you answered using one of these outcomes: 1 (yes) (active), 0 (no) (inactive)

Field: example entries. Status: answers known.
compound	assigned_class
COC(=O)C1(CO)NC(c2cccs2)C2C(=O)N(c3ccccc3)C(=O)C21 (stereo not drawn)	0 (no)
O=C(O)Cn1nc(-c2ccc(F)cc2)oc1=O	0 (no)
COc1ccc(/C=N/NC(=O)CCN2CCCCC2c2cccnc2)cc1Cn1cc([N+](=O)[O-])cn1 (stereo not drawn)	1 (yes)
CCOC(=O)c1oc2nc(CC(C)C)c3c(c2c1N)CCCC3	0 (no)

Recorded call for CCn1c(SCC(=O)OCC(=O)N2c3ccccc3NC(=O)C2(C)C)nnc1-c1ccco1 ?
0 (no)

Recorded call for c1ccc(CCn2nnnc2C(c2cccnc2)N2CCN(c3ccccc3)CC2)cc1 (stereo not drawn) ?
0 (no)

Recorded call for COc1ccc(C(=O)Nc2ccc(N3CCCC3)cc2)cc1 ?
1 (yes)

Recorded call for Cc1[nH]n(C2=NCCS2)c(=O)c1N=Nc1cccc(C(F)(F)F)c1 ?
0 (no)

Recorded call for CCOC(=O)c1nc(NCc2ccccc2C)c2ccccc2n1 ?
0 (no)

Recorded call for Cn1c(CSCCOc2ccccc2)n[nH]c1=S ?
0 (no)

Recorded call for CCOc1ccc(C2CC(c3ccc(F)cc3)Nc3nc(N)nn32)cc1 (stereo not drawn) ?
0 (no)

Recorded call for Cc1cccc(NC(=S)NCc2cccn2C)c1 ?
0 (no)

Recorded call for O=C(NCCCN1CCOCC1)c1sc2cc(Cl)ccc2c1Cl ?
0 (no)

Recorded call for O=C(NCCCN1CCOCC1)c1sc2cc([N+](=O)[O-])ccc2c1Cl ?
1 (yes)

Recorded call for Cc1c(Br)c(=O)oc2c(Br)c(O)ccc12 ?
0 (no)

Recorded call for O=C(O)CC(C(=O)Nc1ccc(Cl)c(Cl)c1)C1CCCO1 (stereo not drawn) ?
0 (no)

Recorded call for COc1ccc(CN2CCn3ncc(C(=O)Nc4cc(C)cc(C)c4)c3C2=O)cc1 ?
0 (no)
